Test system: Vesicular stomatitis virus
Assay: Antiviral activity against VSV infected in mouse L929 cells assessed as protection against virus-induced cytopathic effect treated 24 hrs before viral infection at 3.1 uM
Format: functional
Could you please report measured Emax at 3.1 µM for the items listed next?
Use % as the unit, but write only the number.

Query: Tell me the measured Emax at 3.1 µM of `c1ccc2nc3c(nc2c1)c1ccccc1n3CCN1CCCC1` , please.
Reply: 85

Query: # input compound: `CN(C)CCn1c2ccccc2c2nc3ccccc3nc21` ; wanted: its Emax at 3.1 µM
Reply: 75

Query: Find the recorded Emax at 3.1 µM belonging to `c1ccc2nc3c(nc2c1)c1ccccc1n3CCN1CCCCC1` and report it.
Reply: 90

Query: Give its Emax at 3.1 µM value. Item: `CCCCN(CC)CCn1c2ccccc2c2nc3ccccc3nc21`
Reply: 50

Query: Quick check: Emax at 3.1 µM of `CCCCN(C)CCn1c2ccccc2c2nc3ccccc3nc21` ?
Reply: 75

----------
System: Vesicular stomatitis virus
Assay: Antiviral activity against VSV infected in mouse L929 cells assessed as protection against virus-induced cytopathic effect treated immediately after viral infection at 12.5 uM
Format: functional
METRIC_NAME: Emax at 12.5 µM

Query: Checklist item: Emax at 12.5 µM tested on Vesicular stomatitis virus, entry `CN1CCN(CCn2c3ccccc3c3nc4ccccc4nc32)CC1` , value?
Reply: 100%

Query: What is its Emax at 12.5 µM for Vesicular stomatitis virus? Entry: `CC1CCN(CCn2c3ccccc3c3nc4ccccc4nc32)CC1`
Reply: 50%

Query: Item: `CCCN(CCC)CCn1c2ccccc2c2nc3ccccc3nc21` Test system: Vesicular stomatitis virus Read-out: Emax at 12.5 µM Value: ?
Reply: 75%

Query: Tell me reported Emax at 12.5 µM for `CCCCN(CC)CCn1c2ccccc2c2nc3ccccc3nc21` , tested with Vesicular stomatitis virus.
Reply: 50%

Query: Hello, I am looking for reported Emax at 12.5 µM with Vesicular stomatitis virus for `c1ccc2nc3c(nc2c1)c1ccccc1n3CCN1CCCC1` . Could you help?
Reply: 100%

Query: Could you share what Emax at 12.5 µM was measured for `CCN(CC)CCn1c2ccccc2c2nc3ccccc3nc21` , tested on Vesicular stomatitis virus?
Reply: 100%

----------
Experiment: Cytotoxicity against mouse L929 cells
Assay type: cell-based
METRIC_NAME: CC50 (µM)
The response must be a number in µM with no trailing unit.

Query: # CC50 lookup, item `c1ccc2nc3c(nc2c1)c1ccccc1n3CCN1CCOCC1`
Reply: 1070

Query: Recorded CC50 for `CN(C)CCn1c2ccc3ccccc3c2c2nc3ccccc3nc21` , please?
Reply: 49.9

Query: # CC50 lookup, item `CN1CCN(CCn2c3ccc4ccccc4c3c3nc4ccccc4nc32)CC1`
Reply: 21.4

Query: Could you share which CC50 value was measured for CC1CCCCN1CCn1c2ccc3ccccc3c2c2nc3ccccc3nc21 (stereo not drawn) ?
Reply: 113

Query: GET /values?readout=CC50&item= `CCN(CC)CCn1c2ccc3ccccc3c2c2nc3ccccc3nc21`
Reply: 180

----------
Test system: Calf thymus DNA
Assay: Binding affinity to calf thymus DNA by ethidium bromide displacement assay
Type: nucleic-acid assay, Bos taurus
METRIC_NAME: pIC50

Query: Any idea what pIC50 was measured for CC1CCCCN1CCn1c2ccccc2c2nc3ccccc3nc21 (stereo not given) ?
Reply: 4.08

Query: Data request, read-out pIC50, for `c1ccc2nc3c(nc2c1)c1ccccc1n3CCN1CCCC1`
Reply: 3.95

Query: Report pIC50 for `c1ccc2c(c1)ccc1c2c2nc3ccccc3nc2n1CCN1CCCCC1` please.
Reply: 4.51

Query: So what does the record say about pIC50 for CC1CCCCN1CCn1c2ccc3ccccc3c2c2nc3ccccc3nc21 (stereo not given) ?
Reply: 4.73

Query: Given the molecule `CC1CCN(CCn2c3ccc4ccccc4c3c3nc4ccccc4nc32)CC1` , what is its reported pIC50?
Reply: 4.48

Query: Fill blank: measured pIC50 of the molecule `CCN(CC)CCn1c2ccc3ccccc3c2c2nc3ccccc3nc21` is ____.
Reply: 4.69

Query: Quick one: pIC50 for `CCCCN(C)CCn1c2ccccc2c2nc3ccccc3nc21` ?
Reply: 3.82

Query: // lookup pIC50 for `CCN(CC)CCn1c2ccccc2c2nc3ccccc3nc21`
Reply: 3.97

Query: Form field: reported pIC50 of `CN(C)CCn1c2ccccc2c2nc3ccccc3nc21`
Reply: 3.83

Query: Looking for the measured pIC50 of `c1ccc2c(c1)ccc1c2c2nc3ccccc3nc2n1CCN1CCOCC1` , can you help?
Reply: 4.84

Query: State the recorded pIC50 for this entry: `CC1CCN(CCn2c3ccccc3c3nc4ccccc4nc32)CC1`
Reply: 3.88

Query: # get_value(readout='pIC50', item= `CN(C)CCn1c2ccc3ccccc3c2c2nc3ccccc3nc21` )
Reply: 4.84

Query: I would be grateful if you could share the reported pIC50 for `CCCCN(CC)CCn1c2ccccc2c2nc3ccccc3nc21` .
Reply: 3.91

Query: pIC50 lookup needed for `CN1CCN(CCn2c3ccccc3c3nc4ccccc4nc32)CC1` , thanks.
Reply: 3.77

Query: Look up pIC50 for this molecule: `CCCN(CCC)CCn1c2ccc3ccccc3c2c2nc3ccccc3nc21`
Reply: 4.8

Query: # input molecule: `CN1CCN(CCn2c3ccc4ccccc4c3c3nc4ccccc4nc32)CC1` ; wanted: its pIC50
Reply: 4.84

Query: I would be grateful if you could share the reported pIC50 for `c1ccc2nc3c(nc2c1)c1ccccc1n3CCN1CCOCC1` .
Reply: 3.78

Query: Sample `c1ccc2nc3c(nc2c1)c1ccccc1n3CCN1CCCCC1` — what was its pIC50?
Reply: 3.91

Query: # input molecule: `CCCN(CCC)CCn1c2ccccc2c2nc3ccccc3nc21` ; wanted: its pIC50
Reply: 3.99

Query: Fill in the blank: the reported pIC50 of `c1ccc2nc3c(nc2c1)c1ccccc1n3CCN1CCCCCC1` is ____.
Reply: 4.06

----------
Assay: Cytotoxicity against mouse L929 cells
Format: cell-based
So I've got a bunch of molecules here, and I need their CC50 values.

Query: Find the recorded CC50 belonging to `CCCN(CCC)CCn1c2ccc3ccccc3c2c2nc3ccccc3nc21` and report it.
Reply: > 42.6 µM

Query: Could you tell me which CC50 is on file for `CC1CCN(CCn2c3ccc4ccccc4c3c3nc4ccccc4nc32)CC1` ?
Reply: > 214 µM

Query: Consider the molecule shown here: `c1ccc2c(c1)ccc1c2c2nc3ccccc3nc2n1CCN1CCCCC1` What is its recorded CC50?
Reply: > 221 µM
